Target: G-protein coupled estrogen receptor 1 (Homo sapiens)
Assay: GPR30 agonists and antagonists by calcium flux, primary screen, HL-60 cells, Indo-1 fluorescence, 10 µM (AID 1213)
Details: Indo-1 calcium mobilization, at 10 µM
Results filed as inconclusive are left out. The source made the active and inactive calls.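 Rule for the calls: active = compound giving calcium release at least equal to the estrogen response, or cutting estrogen-driven calcium release by 60% or more; inconclusive = compound glowing brighter than the detergent maximum; inactive = the rest.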
Possible outcomes: Yes for active, No for inactive

{"molecule": "Cc1cc(-c2nn3c(-c4ccccc4)nnc3s2)c2ccccc2n1", "label value": "No"}
{"molecule": "O=C(O)c1ccc2c(c1)C1C=CCC1C(c1cc3c(cc1Br)OCO3)N2 (stereo not given)", "label value": "Yes"}
{"molecule": "COc1ccc(OC)c(C2Nc3c(Cl)ccc(C(=O)O)c3C3C=CCC32)c1 (stereo not given)", "label value": "No"}
{"molecule": "CCc1nc2sc3ccccc3c(=O)c2c(=O)n1Cc1ccco1", "label value": "No"}
{"molecule": "CC(C)C1Nc2ccc(C(=O)O)cc2C2C=CCC21 (stereo not given)", "label value": "Yes"}

----------
Biological target: G-protein coupled estrogen receptor 1 (Homo sapiens)
Experiment: GPR30 agonists and antagonists by calcium flux, primary screen, HL-60 cells, Indo-1 fluorescence, 10 µM (AID 1213)
Details: Indo-1 calcium mobilization, measured here: antagonist mode response, at 10 µM
Results filed as inconclusive are left out.
test readout: inhibition of estrogen-induced calcium mobilization (higher = more inhibition) (%)

{"molecule": "Cc1ccc2c(c1Cl)NC(C(=O)O)C1CC(Sc3ccccc3[N+](=O)[O-])C(Cl)C21 (centres undefined)", "value unit": "%", "measurement": 100}
{"molecule": "Cc1ccc2c(c1)[C@H]1OCC[C@H]1[C@@H](c1ccncc1)N2", "value unit": "%", "measurement": 50}
{"molecule": "COc1cccc(NS(=O)(=O)c2ccc3c(c2)C2C=CCC2C(c2ccc(C(=O)O)cc2)N3)c1 (centres undefined)", "value unit": "%", "measurement": 100}
{"molecule": "O=C(O)c1ccc(NS(=O)(=O)c2ccc3c(c2)C2C=CCC2C(c2ccccc2F)N3)cc1 (centres undefined)", "value unit": "%", "measurement": 50}

----------
Measured calcium mobilization (agonist) by item
Target: G-protein coupled estrogen receptor 1 (Homo sapiens) (UniProt Q99527)
Assay: GPR30 agonists and antagonists by calcium flux, primary screen, HL-60 cells, Indo-1 fluorescence, 10 µM (AID 1213)
Conditions: Indo-1 calcium mobilization, at 10 µM, stronger effect = higher value
Records with an inconclusive call do not appear.

{"compound": "O=C(O)C1Nc2c(O)cccc2C2C=CCC12 (stereo unspecified)", "calcium mobilization (agonist) / %": 50}
{"compound": "Cn1ccnc1SCC(=O)Nc1ccc2nc(SCC(=O)NC3CC3)sc2c1", "calcium mobilization (agonist) / %": 0}
{"compound": "O=C(O)c1ccc(NS(=O)(=O)c2ccc3c(c2)C2C=CCC2C(c2ccccc2F)N3)cc1 (stereo unspecified)", "calcium mobilization (agonist) / %": 0}
{"compound": "CC(C)C1Nc2ccc(S(N)(=O)=O)cc2C2C=CCC21 (stereo unspecified)", "calcium mobilization (agonist) / %": 0}
{"compound": "N=C1C(c2nc3ccccc3[nH]2)=C(O)CN1c1ccc(CC(=O)O)cc1", "calcium mobilization (agonist) / %": 0}
{"compound": "CCC(=O)Oc1ccc(/C(CC)=C(\\CC)c2ccc(OC(=O)CC)cc2)cc1", "calcium mobilization (agonist) / %": 0}

----------
Target: UniProt Q99527
Test: GPR30 agonists and antagonists by calcium flux, primary screen, HL-60 cells, Indo-1 fluorescence, 10 µM (AID 1213)
Details: Indo-1 calcium mobilization, at 10 µM, stronger effect = higher value
Results filed as inconclusive are left out.
Measured calcium mobilization (agonist) by item
test readout: calcium mobilization (agonist) (%)

{"molecule": "Cc1c(Cl)cccc1NS(=O)(=O)c1ccc2c(c1)C1C=CCC1C(c1ccc(C(=O)O)cc1)N2 (stereo unspecified)", "value unit": "%", "measurement": 0}
{"molecule": "CC(C)c1ccc2c(c1)[C@H]1OCC[C@H]1[C@@H](c1cccs1)N2", "value unit": "%", "measurement": 0}
{"molecule": "CC(=O)c1ccc2c(c1)C1C=CCC1C(c1ccncc1)N2 (stereo unspecified)", "value unit": "%", "measurement": 100}
{"molecule": "CCc1ccc(-c2nn(-c3ccccc3)cc2CSC(=N)N)cc1", "value unit": "%", "measurement": 50}
{"molecule": "C[C@]12CC[C@@H]3c4ccc(O)cc4C(=O)C[C@H]3[C@@H]1CC[C@@H]2O", "value unit": "%", "measurement": 0}
{"molecule": "O=C(O)c1cc(Cl)c2c(c1)[C@@H]1C=CC[C@@H]1[C@H](c1ccc(S(=O)(=O)N3CCOCC3)cc1)N2", "value unit": "%", "measurement": 0}
{"molecule": "CCCC1Nc2ccc(C(=O)O)cc2C2C=CCC12 (stereo unspecified)", "value unit": "%", "measurement": 0}
{"molecule": "CCCNC(=O)c1ccc2c(c1)C1C3CCC(C3)C1C(c1ccccc1)N2 (stereo unspecified)", "value unit": "%", "measurement": 100}
{"molecule": "O=C(COC(=O)CCC(=O)c1cccs1)NCc1ccco1", "value unit": "%", "measurement": 0}
{"molecule": "COc1cccc(NS(=O)(=O)c2ccc3c(c2)C2C=CCC2C(c2ccc(C(=O)O)cc2)N3)c1 (stereo unspecified)", "value unit": "%", "measurement": 0}
{"molecule": "CC(=O)Nc1ccc(OC(=O)CC2SC(=O)NC2=O)cc1 (stereo unspecified)", "value unit": "%", "measurement": 0}
{"molecule": "CC(C)(C)NC(=O)c1ccc2c(c1)C1C3CCC(C3)C1C(c1ccccc1)N2 (stereo unspecified)", "value unit": "%", "measurement": 100}
{"molecule": "O=C1NC(c2ccc(Br)cc2)Nc2sc3c(c21)CCC3 (stereo unspecified)", "value unit": "%", "measurement": 50}
{"molecule": "O=C(NC1CC1)c1ccc2c(c1)C1C3CCC(C3)C1C(c1ccccc1)N2 (stereo unspecified)", "value unit": "%", "measurement": 100}
{"molecule": "COc1ccc(C(=O)N/N=C(\\C)c2ccc3c(c2)C2C=CCC2C(c2ccccc2)N3)cc1 (stereo unspecified)", "value unit": "%", "measurement": 50}
{"molecule": "O=C(O)C1Nc2c(O)cc(Cl)c([N+](=O)[O-])c2C2C=CCC12 (stereo unspecified)", "value unit": "%", "measurement": 0}
{"molecule": "CCOC(=O)c1ccc2c(c1)C1C=CCC1C(C(=O)O)N2 (stereo unspecified)", "value unit": "%", "measurement": 0}
{"molecule": "O=C(OC1CCCCC1)c1ccc2c(c1)C1C=CCC1C(C(=O)O)N2 (stereo unspecified)", "value unit": "%", "measurement": 0}
{"molecule": "COc1cccc(C2Nc3c(F)cc(Br)cc3C3C=CCC32)c1OC (stereo unspecified)", "value unit": "%", "measurement": 0}
{"molecule": "CCCCOC(=O)c1c(C)oc2ccc(NS(=O)(=O)c3ccc4c5c(cccc35)C(=O)N4)cc12", "value unit": "%", "measurement": 0}
{"molecule": "CCCCCCNC(=O)c1cc(-c2ccco2)nc2ccccc12", "value unit": "%", "measurement": 0}

----------
Measured calcium mobilization (agonist) by item
Biological target: UniProt:Q99527
Assay: GPR30 agonists and antagonists by calcium flux, primary screen, HL-60 cells, Indo-1 fluorescence, 10 µM (AID 1213)
Settings: Indo-1 calcium mobilization, at 10 µM, stronger effect = higher value
Results filed as inconclusive are left out.
test readout: calcium mobilization (agonist) (%)

{"compound": "O=C(Nc1cc(C(F)(F)F)ccc1N1CCOCC1)C1Cc2ccccc2CN1C(=O)c1ccco1 (stereo not drawn)", "target system": "UniProt:Q99527", "measurement": 0}
{"compound": "Cc1cc(C)c2c(c1)NC(c1cc3c(cc1Br)OCO3)C1CC=CC21 (stereo not drawn)", "target system": "UniProt:Q99527", "measurement": 50}
{"compound": "CC(=O)c1ccc2c(c1)C1C=CCC1C(C(=O)O)N2 (stereo not drawn)", "target system": "UniProt:Q99527", "measurement": 0}
{"compound": "COc1cc(C2Nc3c(F)cccc3C3C=CCC32)cc(Br)c1OC (stereo not drawn)", "target system": "UniProt:Q99527", "measurement": 0}
{"compound": "Oc1ccc(-c2nc3ccc4ccccc4c3c3c2CCC3)cc1O", "target system": "UniProt:Q99527", "measurement": 0}
{"compound": "CC(=O)c1ccc2c(c1)C1C=CCC1C(c1ccc(S(=O)(=O)N3CCOCC3)cc1)N2 (stereo not drawn)", "target system": "UniProt:Q99527", "measurement": 100}
{"compound": "Cc1cc(C(=O)Nc2sc3c(c2C#N)CCC3)no1", "target system": "UniProt:Q99527", "measurement": 0}
{"compound": "O=C(Cc1cccs1)Nc1ccc(S(=O)(=O)Nc2ncccn2)cc1", "target system": "UniProt:Q99527", "measurement": 0}
{"compound": "CCn1nnc(NC(=O)CSc2ccc(Cl)cc2)n1", "target system": "UniProt:Q99527", "measurement": 0}
{"compound": "Cc1cc(C)c2c(c1)[C@@H]1C=CC[C@@H]1[C@H](c1ccc(S(=O)(=O)N3CCOCC3)cc1)N2", "target system": "UniProt:Q99527", "measurement": 0}
{"compound": "Cc1ccc2c(c1C)NC(C(=O)O)C1CC=CC21 (stereo not drawn)", "target system": "UniProt:Q99527", "measurement": 0}
{"compound": "Cc1nnc(SCC(=O)NC(=O)NCc2ccco2)n1Cc1ccccc1", "target system": "UniProt:Q99527", "measurement": 0}
{"compound": "O=C(c1cc2ncc(Br)cn2n1)N1CCN(C(=O)c2ccco2)CC1", "target system": "UniProt:Q99527", "measurement": 0}
{"compound": "CC(=O)N1c2ccc(Cl)cc2C2C=CCC2C1c1cccc2ccccc12 (stereo not drawn)", "target system": "UniProt:Q99527", "measurement": 100}
{"compound": "Oc1ccc(-c2nc(-c3ccc(O)c(O)c3)cs2)cc1", "target system": "UniProt:Q99527", "measurement": 0}
{"compound": "Cc1cc([N+](=O)[O-])c2c(c1C)C1C=CCC1C(c1ccccn1)N2 (stereo not drawn)", "target system": "UniProt:Q99527", "measurement": 0}
{"compound": "COc1cccc2c1NC(C(=O)O)C1CC=CC21 (stereo not drawn)", "target system": "UniProt:Q99527", "measurement": 0}
{"compound": "CCC(=O)Oc1ccc(C(CC)C(CC)c2ccc(OC(=O)CC)cc2)cc1 (stereo not drawn)", "target system": "UniProt:Q99527", "measurement": 0}
{"compound": "COc1ccc(CNC(=O)c2cc(-c3cccs3)on2)cc1", "target system": "UniProt:Q99527", "measurement": 0}
{"compound": "Cc1ccc2c(c1)C1C=CCC1C(C(=O)O)N2 (stereo not drawn)", "target system": "UniProt:Q99527", "measurement": 0}
{"compound": "CCNC(=O)c1ccc2c(c1)C1C3CCC(C3)C1C(c1ccccc1)N2 (stereo not drawn)", "target system": "UniProt:Q99527", "measurement": 100}
{"compound": "O=C(O)C1Nc2c(C(=O)N3CCOCC3)cccc2C2C=CCC12 (stereo not drawn)", "target system": "UniProt:Q99527", "measurement": 0}
{"compound": "O=C(O)c1ccc2c(c1)C1C(Cl)C(Sc3ccccc3[N+](=O)[O-])CC1C(c1cccc([N+](=O)[O-])c1)N2 (stereo not drawn)", "target system": "UniProt:Q99527", "measurement": 0}
{"compound": "C[C@]12CC[C@@H]3c4ccc(O)cc4[C@@H](O)C[C@H]3[C@@H]1CC[C@@H]2O", "target system": "UniProt:Q99527", "measurement": 0}
{"compound": "Nc1ncnc2c1ncn2C1CCC(CO)C(O)C1 (stereo not drawn)", "target system": "UniProt:Q99527", "measurement": 0}
{"compound": "Fc1ccc2c(c1)C1C=CCC1C(c1cc3c(cc1Br)OCO3)N2 (stereo not drawn)", "target system": "UniProt:Q99527", "measurement": 100}
{"compound": "Cc1nn(-c2ccccc2)c(/N=C/c2ccc(O)cc2)c1-c1ccccc1", "target system": "UniProt:Q99527", "measurement": 0}
{"compound": "CN(C)C(=O)c1ccc2c(c1)C1C3CCC(C3)C1C(c1ccccc1)N2 (stereo not drawn)", "target system": "UniProt:Q99527", "measurement": 100}
{"compound": "COc1ccc2c(c1)C1C=CCC1C(c1cc3c(cc1Br)OCO3)N2 (stereo not drawn)", "target system": "UniProt:Q99527", "measurement": 100}
{"compound": "Fc1ccc2c(c1)[C@H]1OCC[C@H]1[C@@H](c1ccco1)N2", "target system": "UniProt:Q99527", "measurement": 100}
{"compound": "Cc1ccc2c(c1Cl)NC(C(=O)O)C1CC(Sc3ccccc3[N+](=O)[O-])C(Cl)C21 (stereo not drawn)", "target system": "UniProt:Q99527", "measurement": 0}
{"compound": "FC(F)(F)c1ccc2c(c1)C1C=CCC1C(c1ccncc1)N2 (stereo not drawn)", "target system": "UniProt:Q99527", "measurement": 0}
{"compound": "NS(=O)(=O)c1ccc2c(c1)C1C=CCC1C(C1CC=CCC1)N2 (stereo not drawn)", "target system": "UniProt:Q99527", "measurement": 0}
{"compound": "Cc1ccc2c(c1)[C@H]1OCC[C@H]1[C@@H](c1ccncc1)N2", "target system": "UniProt:Q99527", "measurement": 0}
{"compound": "O=S(=O)(NCCc1csc(-c2cccnc2)n1)c1ccc(Cl)s1", "target system": "UniProt:Q99527", "measurement": 100}
{"compound": "O=C(O)c1ccc(Cl)c2c1C1C=CCC1C(c1ccccn1)N2 (stereo not drawn)", "target system": "UniProt:Q99527", "measurement": 50}
{"compound": "C[C@H]1CCC[C@@H](O)CCC/C=C/c2cc(O)cc(O)c2C(=O)O1", "target system": "UniProt:Q99527", "measurement": 50}
{"compound": "CCc1ccc2c(c1)[C@H]1OCC[C@H]1[C@@H](c1cccs1)N2", "target system": "UniProt:Q99527", "measurement": 50}
